Source listed as the Immune Epitope Database (IEDB).

Target: HLA-A*24:03
Assay: IEDB peptide-MHC binding, purified MHC/direct/fluorescence; filed as Kd, often an IC50 or EC50 that approximates it; bounds were set here for any values at or beyond the usual limits of such assays
Conditions: source organism: Aggregatibacter actinomycetemcomitans
observed-property: Kd

Input KYDDRIQSQ . Output Kd: ≥ 20 µM

----------
Biological target: HLA-C*14:02
Test: IEDB peptide-MHC binding, purified MHC/competitive/fluorescence; filed as Kd, often an IC50 or EC50 that approximates it; bounds were set here for any values at or beyond the usual limits of such assays
Details: source organism: Salmonella enterica subsp. enterica serovar Typhi
observed-property: pKd
In textbook form, pKd equals minus log to base ten of the concentration in mol/L.

Input SVIDHIHYM . Output pKd: 7.42
